Tested on: Pseudomonas aeruginosa
Experiment: Antimicrobial activity against multidrug-resistant Pseudomonas aeruginosa 085 assessed as inhibition of visible bacterial growth incubated for 18 hrs by broth-dilution method
Assay type: functional
Numbered stars: 1 amine (or outer) side, 2 acyl side, 3 side chain; on linkers, the order of the positions; unused ones are H or OH. Square brackets hold non-standard residues; d marks the D form. Peptide text beside a SMILES is read from it. * marks the point of attachment. X3 = CC(C)C[C@@H](CN(CC(N)=O)S(=O)(=O)c1ccc(C(F)(F)F)cc1)N*; X4 = N[C@@H](Cc1ccccc1)CN(CC(=O)[*:2])[*:1]; X2 = CC(C)C[C@H](N)CN(CC(=O)[*:2])[*:1]; X1 = O=S(=O)(c1ccc(C(F)(F)F)cc1)*
READOUT LABEL: MIC (µg/mL)
Kindly answer with a numeric value in µg/mL, unit omitted.

Look over these answered cases.
{"COMPOUND": "CC(C)C[C@H](N)CN(CC(=O)N[C@@H](CCCCN)C(=O)N[C@@H](CC(C)C)C(=O)N[C@@H](CC(C)C)C(=O)N[C@@H](CCCCN)C(=O)N[C@@H](CCCCN)C(=O)N[C@@H](CC(C)C)C(=O)N[C@@H](CC(C)C)C(N)=O)S(=O)(=O)c1ccc(C(F)(F)F)cc1 (X1-[X2]KLLKKLL-NH2)", "READOUT LABEL": "MIC", "READING": 8}
{"COMPOUND": "C[C@H]1[C@H](NC(=O)/C(=N\\OC(C)(C)C(=O)O)c2csc(N)n2)C(=O)N1S(=O)(=O)O", "READOUT LABEL": "MIC", "READING": 8}
{"COMPOUND": "CC(C)C[C@H](NC(=O)[C@H](CC(C)C)NC(=O)[C@H](CCCCN)NC(=O)[C@H](CCCCN)NC(=O)[C@H](CC(C)C)NC(=O)[C@H](C)NC(=O)[C@H](CCCCN)NC(=O)CN(C[C@@H](N)Cc1ccccc1)S(=O)(=O)c1ccc(C(F)(F)F)cc1)C(N)=O (X1-[X4]KALKKLL-NH2)", "READOUT LABEL": "MIC", "READING": 8}
{"COMPOUND": "C[C@@H](O)[C@H]1C(=O)N2C(C(=O)O)=C(SCCNC=N)C[C@H]12 [IMIPENEM ANHYDROUS]", "READOUT LABEL": "MIC", "READING": 8}

Reported MIC of CC(C)(O/N=C(\C(=O)N[C@@H]1C(=O)N2C(C(=O)[O-])=C(C[n+]3ccccc3)CS[C@H]12)c1csc(N)n1)C(=O)O : 1

Reported MIC of CC(C)C[C@@H](CN(CC(N)=O)S(=O)(=O)c1ccc(C(F)(F)F)cc1)NC(=O)[C@H](CCCCN)NC(=O)[C@H](CCCCN)NC(=O)[C@H](CC(C)C)NC(=O)[C@H](CC(C)C)NC(=O)[C@H](CCCCN)NC(=O)[C@H](CC(C)C)NC(=O)[C@@H](N)Cc1ccccc1 (H-FLKLLKK-X3) : 16

* * *

Reported MIC is given for each of the following molecules.
Test system: Staphylococcus epidermidis
Experiment: Antimicrobial activity against Staphylococcus epidermidis ATCC 12228 assessed as inhibition of visible bacterial growth incubated for 18 hrs by broth-dilution method
Format: functional
Numbered stars: 1 amine (or outer) side, 2 acyl side, 3 side chain; on linkers, the order of the positions; unused ones are H or OH. Square brackets hold non-standard residues; d marks the D form. Peptide text beside a SMILES is read from it. * marks the point of attachment. X8 = NC(=O)CN(C[C@H](Cc1ccccc1)N*)S(=O)(=O)c1cc(C(F)(F)F)cc(C(F)(F)F)c1; X5 = NC(=O)CN(C[C@H](Cc1ccccc1)N*)S(=O)(=O)c1ccc(C(F)(F)F)cc1; X3 = CC(C)C[C@@H](CN(CC(N)=O)S(=O)(=O)c1ccc(C(F)(F)F)cc1)N*; X4 = N[C@@H](Cc1ccccc1)CN(CC(=O)[*:2])[*:1]; X7 = O=S(=O)(c1cc(C(F)(F)F)cc(C(F)(F)F)c1)*; X2 = CC(C)C[C@H](N)CN(CC(=O)[*:2])[*:1]; X1 = O=S(=O)(c1ccc(C(F)(F)F)cc1)*
Kindly answer with a numeric value in µg/mL, unit omitted.

Look over these answered cases.
{"MOLECULE": "CC(C)C[C@H](NC(=O)[C@H](CC(C)C)NC(=O)[C@H](CCCCN)NC(=O)[C@H](CCCCN)NC(=O)[C@H](CC(C)C)NC(=O)[C@H](C)NC(=O)[C@H](CCCCN)NC(=O)CN(C[C@@H](N)Cc1ccccc1)S(=O)(=O)c1cc(C(F)(F)F)cc(C(F)(F)F)c1)C(N)=O (X7-[X4]KALKKLL-NH2)", "MIC / µg/mL": 8}
{"MOLECULE": "CC(C)C[C@H](NC(=O)[C@H](CC(C)C)NC(=O)[C@H](CCCCN)NC(=O)[C@H](CCCCN)NC(=O)[C@H](CC(C)C)NC(=O)[C@H](C)NC(=O)[C@H](CCCCN)NC(=O)CN(C[C@@H](N)Cc1ccccc1)S(=O)(=O)c1ccc(C(F)(F)F)cc1)C(N)=O (X1-[X4]KALKKLL-NH2)", "MIC / µg/mL": 8}
{"MOLECULE": "CC(C)C[C@H](N)CN(CC(=O)N[C@@H](CCCCN)C(=O)N[C@@H](CC(C)C)C(=O)N[C@@H](CC(C)C)C(=O)N[C@@H](CCCCN)C(=O)N[C@@H](CCCCN)C(=O)N[C@@H](CC(C)C)C(=O)N[C@@H](CC(C)C)C(N)=O)S(=O)(=O)c1cc(C(F)(F)F)cc(C(F)(F)F)c1 (X7-[X2]KLLKKLL-NH2)", "MIC / µg/mL": 16}
{"MOLECULE": "CC(C)C[C@H](NC(=O)[C@H](C)NC(=O)[C@H](CCCCN)NC(=O)[C@H](CC(C)C)NC(=O)[C@@H](N)Cc1ccccc1)C(=O)N[C@@H](CCCCN)C(=O)N[C@@H](CCCCN)C(=O)N[C@@H](Cc1ccccc1)CN(CC(N)=O)S(=O)(=O)c1cc(C(F)(F)F)cc(C(F)(F)F)c1 (H-FLKALKK-X8)", "MIC / µg/mL": 16}
{"MOLECULE": "CC(C)(O/N=C(\\C(=O)N[C@@H]1C(=O)N2C(C(=O)[O-])=C(C[n+]3ccccc3)CS[C@H]12)c1csc(N)n1)C(=O)O", "MIC / µg/mL": 256}
{"MOLECULE": "CC(C)C[C@@H](CN(CC(N)=O)S(=O)(=O)c1ccc(C(F)(F)F)cc1)NC(=O)[C@H](CCCCN)NC(=O)[C@H](CCCCN)NC(=O)[C@H](CC(C)C)NC(=O)[C@H](CC(C)C)NC(=O)[C@H](CCCCN)NC(=O)[C@H](CC(C)C)NC(=O)[C@@H](N)Cc1ccccc1 (H-FLKLLKK-X3)", "MIC / µg/mL": 4}

Okay, next one:
Field MIC (system: Staphylococcus epidermidis) for entry CC(C)C[C@H](NC(=O)[C@H](CC(C)C)NC(=O)[C@H](CCCCN)NC(=O)[C@H](CC(C)C)NC(=O)[C@@H](N)Cc1ccccc1)C(=O)N[C@@H](CCCCN)C(=O)N[C@@H](CCCCN)C(=O)N[C@@H](Cc1ccccc1)CN(CC(N)=O)S(=O)(=O)c1ccc(C(F)(F)F)cc1 (H-FLKLLKK-X5) = 4

Origin of values: ChEMBL document CHEMBL5537135
